For each of the binders below, state its EC50 of hC3 cleavage.
Target: plasma purified human complement protein C3 (human) (UniProt P01024)
Sequence (P01024 23-667, chain 1 of 2): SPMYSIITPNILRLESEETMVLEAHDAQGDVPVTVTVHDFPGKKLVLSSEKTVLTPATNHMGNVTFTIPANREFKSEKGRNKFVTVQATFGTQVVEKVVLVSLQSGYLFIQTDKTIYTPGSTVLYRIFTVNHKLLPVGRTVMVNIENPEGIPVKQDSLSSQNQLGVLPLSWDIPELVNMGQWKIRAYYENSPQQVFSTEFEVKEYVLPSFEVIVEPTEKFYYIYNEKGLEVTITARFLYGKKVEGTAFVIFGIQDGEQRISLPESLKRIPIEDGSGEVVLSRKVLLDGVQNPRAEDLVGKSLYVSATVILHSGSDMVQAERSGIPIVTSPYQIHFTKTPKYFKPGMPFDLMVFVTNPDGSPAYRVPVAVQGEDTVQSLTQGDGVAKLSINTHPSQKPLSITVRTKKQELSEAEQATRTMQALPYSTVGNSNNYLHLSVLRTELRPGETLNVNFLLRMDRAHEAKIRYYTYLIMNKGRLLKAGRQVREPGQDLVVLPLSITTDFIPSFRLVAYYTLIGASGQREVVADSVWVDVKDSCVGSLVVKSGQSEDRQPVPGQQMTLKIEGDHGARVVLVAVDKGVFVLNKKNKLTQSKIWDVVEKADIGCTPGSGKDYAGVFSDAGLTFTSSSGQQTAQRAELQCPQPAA
Sequence (P01024 672-1663, chain 2 of 2): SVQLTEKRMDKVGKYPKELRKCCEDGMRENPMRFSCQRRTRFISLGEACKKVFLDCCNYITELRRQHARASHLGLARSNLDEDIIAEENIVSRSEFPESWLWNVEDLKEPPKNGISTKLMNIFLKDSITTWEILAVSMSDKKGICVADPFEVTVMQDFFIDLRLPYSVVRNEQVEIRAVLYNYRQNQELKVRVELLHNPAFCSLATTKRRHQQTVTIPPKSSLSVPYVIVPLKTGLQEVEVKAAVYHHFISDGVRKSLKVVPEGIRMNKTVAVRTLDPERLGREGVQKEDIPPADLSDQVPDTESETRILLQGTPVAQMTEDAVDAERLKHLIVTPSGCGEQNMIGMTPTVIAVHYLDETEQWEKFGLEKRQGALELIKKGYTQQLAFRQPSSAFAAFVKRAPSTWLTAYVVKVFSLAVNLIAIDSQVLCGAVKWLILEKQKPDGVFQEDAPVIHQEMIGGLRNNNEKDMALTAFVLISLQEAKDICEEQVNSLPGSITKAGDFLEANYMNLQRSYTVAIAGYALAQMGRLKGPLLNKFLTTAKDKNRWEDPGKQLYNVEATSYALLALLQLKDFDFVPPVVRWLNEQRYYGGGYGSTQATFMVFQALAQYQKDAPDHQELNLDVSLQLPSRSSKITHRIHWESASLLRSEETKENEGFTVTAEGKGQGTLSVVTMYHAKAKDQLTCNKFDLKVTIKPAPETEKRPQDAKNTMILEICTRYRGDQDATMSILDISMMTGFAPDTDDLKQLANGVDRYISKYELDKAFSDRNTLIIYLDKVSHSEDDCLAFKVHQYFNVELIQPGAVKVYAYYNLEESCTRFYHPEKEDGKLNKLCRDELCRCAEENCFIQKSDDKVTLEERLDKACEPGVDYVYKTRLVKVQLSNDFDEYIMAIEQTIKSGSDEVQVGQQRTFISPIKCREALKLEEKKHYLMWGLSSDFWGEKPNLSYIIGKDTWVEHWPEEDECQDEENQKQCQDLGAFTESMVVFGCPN
Experiment: cell-based or functional assay
Answers are plain numbers, in nM.

See these solved cases before continuing.
>  <BINDER>
MTSP-1 Q38H/I41A/D60bV/F60eA/Y60gW/F97T/ins97aE/T98G/F99L/C122S/Q175L/Q192V (enzyme) VVGGTDADEGEWPWQVSLHALGHGHACGASLISPNWLVSAAHCYIDVRGARWSDPTQWTAFLGLHDQSQRSAPGVQERRLKRIISHPFFNDTEGLDYDIALLELEKPAEYSSMVRPISLPDASHVFPAGKAIWVTGWGHTQYGGTGALILQKGEIRVINQTTCENLLPQLITPRMMCVGFLSGGVDSCVGDSGGPLSSVEADGRIFQAGVVSWGDGCAQRNKPGVYTRLPLFRDWIKENTGV

>  <OBSERVATION_TYPE>
EC50 of hC3 cleavage

>  <ENDPOINT_RESULT>
1.57

$$$$
>  <BINDER>
MTSP-1 H40R/I41H/F97D/C122S/Q175R/Q192G/D217I/K224Q (enzyme) VVGGTDADEGEWPWQVSLHALGQGRHCGASLISPNWLVSAAHCYIDDRGFRYSDPTQWTAFLGLHDQSQRSAPGVQERRLKRIISHPFFNDDTFDYDIALLELEKPAEYSSMVRPISLPDASHVFPAGKAIWVTGWGHTQYGGTGALILQKGEIRVINQTTCENLLPQRITPRMMCVGFLSGGVDSCGGDSGGPLSSVEADGRIFQAGVVSWGIGCAQRNQPGVYTRLPLFRDWIKENTGV

>  <OBSERVATION_TYPE>
EC50 of hC3 cleavage

>  <ENDPOINT_RESULT>
93.1

$$$$
>  <BINDER>
MTSP-1 H40R/I41H/F97E/ins97aE/T98G/F99L/C122S/Q175L/Q192G (enzyme) VVGGTDADEGEWPWQVSLHALGQGRHCGASLISPNWLVSAAHCYIDDRGFRYSDPTQWTAFLGLHDQSQRSAPGVQERRLKRIISHPFFNDEEGLDYDIALLELEKPAEYSSMVRPISLPDASHVFPAGKAIWVTGWGHTQYGGTGALILQKGEIRVINQTTCENLLPQLITPRMMCVGFLSGGVDSCGGDSGGPLSSVEADGRIFQAGVVSWGDGCAQRNKPGVYTRLPLFRDWIKENTGV

>  <OBSERVATION_TYPE>
EC50 of hC3 cleavage

>  <ENDPOINT_RESULT>
82.4

$$$$
>  <BINDER>
MTSP-1 F97M/ins97aD/T98D/F99L/C122S/Q192T (enzyme) VVGGTDADEGEWPWQVSLHALGQGHICGASLISPNWLVSAAHCYIDDRGFRYSDPTQWTAFLGLHDQSQRSAPGVQERRLKRIISHPFFNDMDDLDYDIALLELEKPAEYSSMVRPISLPDASHVFPAGKAIWVTGWGHTQYGGTGALILQKGEIRVINQTTCENLLPQQITPRMMCVGFLSGGVDSCTGDSGGPLSSVEADGRIFQAGVVSWGDGCAQRNKPGVYTRLPLFRDWIKENTGV

>  <OBSERVATION_TYPE>
EC50 of hC3 cleavage

>  <ENDPOINT_RESULT>
151

$$$$
>  <BINDER>
MTSP-1 Q38H/I41A/D60bV/F60eI/Y60gW/ins97aE/F97T/T98G/F99L/C122S/G151H/Q175L/Q192D (enzyme) VVGGTDADEGEWPWQVSLHALGHGHACGASLISPNWLVSAAHCYIDVRGIRWSDPTQWTAFLGLHDQSQRSAPGVQERRLKRIISHPFFNDTEGLDYDIALLELEKPAEYSSMVRPISLPDASHVFPAGKAIWVTGWGHTQYGGTHALILQKGEIRVINQTTCENLLPQLITPRMMCVGFLSGGVDSCDGDSGGPLSSVEADGRIFQAGVVSWGDGCAQRNKPGVYTRLPLFRDWIKENTGV

>  <OBSERVATION_TYPE>
EC50 of hC3 cleavage

>  <ENDPOINT_RESULT>
6.42

$$$$

For every item in the list below, what is its measured EC50 of hC3 cleavage?
1. MTSP-1 Q38H/I41A/D60bV/F60eR/Y60gW/D96I/F97N/T98G/F99L/C122S/G151N/Q175L/Q192D (enzyme) VVGGTDADEGEWPWQVSLHALGHGHACGASLISPNWLVSAAHCYIDVRGRRWSDPTQWTAFLGLHDQSQRSAPGVQERRLKRIISHPFFNINGLDYDIALLELEKPAEYSSMVRPISLPDASHVFPAGKAIWVTGWGHTQYGGTNALILQKGEIRVINQTTCENLLPQLITPRMMCVGFLSGGVDSCDGDSGGPLSSVEADGRIFQAGVVSWGDGCAQRNKPGVYTRLPLFRDWIKENTGV
2. MTSP-1 H40R/I41H/F97D/F99L/Q192G (enzyme) VVGGTDADEGEWPWQVSLHALGQGRHCGASLISPNWLVSAAHCYIDDRGFRYSDPTQWTAFLGLHDQSQRSAPGVQERRLKRIISHPFFNDDTLDYDIALLELEKPAEYSSMVRPICLPDASHVFPAGKAIWVTGWGHTQYGGTGALILQKGEIRVINQTTCENLLPQQITPRMMCVGFLSGGVDSCGGDSGGPLSSVEADGRIFQAGVVSWGDGCAQRNKPGVYTRLPLFRDWIKENTGV
3. MTSP-1 Q38H/I41S/D60bT/F60eS/Y60gW/D96K/F97G/T98P/F99L/C122S/G151H/Q175L/Q192D (enzyme) VVGGTDADEGEWPWQVSLHALGHGHSCGASLISPNWLVSAAHCYIDTRGSRWSDPTQWTAFLGLHDQSQRSAPGVQERRLKRIISHPFFNKGPLDYDIALLELEKPAEYSSMVRPISLPDASHVFPAGKAIWVTGWGHTQYGGTHALILQKGEIRVINQTTCENLLPQLITPRMMCVGFLSGGVDSCDGDSGGPLSSVEADGRIFQAGVVSWGDGCAQRNKPGVYTRLPLFRDWIKENTGV

Resp:
1. 2.87
2. 24.1
3. 7.88

For every item in the list below, what is its measured EC50 of hC3 cleavage?
1. MTSP-1 H40K/I41M/F97D/F99L/C122S/G151N/Q175L/Q192A/D217N/K224R (enzyme) VVGGTDADEGEWPWQVSLHALGQGKMCGASLISPNWLVSAAHCYIDDRGFRYSDPTQWTAFLGLHDQSQRSAPGVQERRLKRIISHPFFNDDTLDYDIALLELEKPAEYSSMVRPISLPDASHVFPAGKAIWVTGWGHTQYGGTNALILQKGEIRVINQTTCENLLPQLITPRMMCVGFLSGGVDSCAGDSGGPLSSVEADGRIFQAGVVSWGNGCAQRNRPGVYTRLPLFRDWIKENTGV
2. MTSP-1 I41S/D60bT/F60eS/Y60gW/D96K/F97G/ins97aV/T98P/F99L/C122S/G151H/Q175L/Q192D (enzyme) VVGGTDADEGEWPWQVSLHALGQGHSCGASLISPNWLVSAAHCYIDTRGSRWSDPTQWTAFLGLHDQSQRSAPGVQERRLKRIISHPFFNKGVPLDYDIALLELEKPAEYSSMVRPISLPDASHVFPAGKAIWVTGWGHTQYGGTHALILQKGEIRVINQTTCENLLPQLITPRMMCVGFLSGGVDSCDGDSGGPLSSVEADGRIFQAGVVSWGDGCAQRNKPGVYTRLPLFRDWIKENTGV

Resp:
1290
17.1

Where these numbers come from: patent US20240018502A1
